I'd appreciate it if you could supply chromatographic logP values for the items below.
Measurement Protocol: log P determination by HPLC (EEC Directive 79/831 Annex V.A8)
Assay type: physicochemical
Condition: log P
No unit in the answer, please; the number alone is enough.

# input Using known records, supply chromatographic logP for Cc1cc(Cl)cc(C(=O)NC2CC2)c1NC(=O)c1cc(Cn2nnc(C(F)(F)C(F)(F)F)n2)nn1-c1ncccc1Cl
# output 3.7

# input For the compound Cc1cc(Cl)cc(C(=O)NC2CC2)c1NC(=O)c1cc(Cn2nnc(C(F)(C(F)(F)F)C(F)(F)F)n2)nn1-c1ncccc1Cl , report chromatographic logP.
# output 3.94

# input Complete the entry with chromatographic logP for Cc1cc(Cl)cc(C(=O)NC(C)(C)C)c1NC(=O)c1cc(Cn2nnnc2C(F)F)nn1-c1ncccc1Cl
# output 3.09

# input Identify measured chromatographic logP corresponding to Cc1cc(Cl)cc(C(=O)NC(C)(C)C)c1NC(=O)c1cc(Cn2nnc(C(F)(F)F)n2)nn1-c1ncccc1Cl
# output 3.85

# input Specify chromatographic logP for CNC(=O)c1cc(I)cc(C)c1NC(=O)c1cc(Cn2nnc(C(F)(C(F)(F)F)C(F)(F)F)n2)nn1-c1ncccc1Cl and stop.
# output 3.94

# input Read off the recorded chromatographic logP for CC(C)(C)NC(=O)c1cc(Cl)cc(Cl)c1NC(=O)c1cc(Cn2nnnc2C(F)F)nn1-c1ncccc1Cl
# output 3.05

# input Supply measured chromatographic logP of CC(NC(=O)c1cc(Cl)cc(Cl)c1NC(=O)c1cc(Cn2nnc(C(F)(F)F)n2)nn1-c1ncccc1Cl)C1CC1 (stereo not shown) in your reply.
# output 3.71

* * *

Tested on: caterpillars of the armyworm (Spodoptera frugiperda)
Measurement Protocol: Spodoptera frugiperda test (SPODFR spray treatment)
Assay type: in vivo
Condition: Spodoptera frugiperda, in Zea mays, foliar, read-out: effect in % (caterpillars killed)
Property Name: pest or weed control at 100 g/ha

# input Give pest or weed control at 100 g/ha for CNC(=O)c1cc(Cl)cc(Cl)c1NC(=O)c1cc(Cn2nnc(C(F)(F)C(F)(F)F)n2)nn1-c1ncccc1Cl [Example 222]
# output ≥ 80%

# input Answer with the recorded pest or weed control at 100 g/ha of Cc1cc(I)cc(C(N)=O)c1NC(=O)c1cc(Cn2nnc(C(F)(C(F)(F)F)C(F)(F)F)n2)nn1-c1ncccc1Cl [Example 382] only.
# output ≥ 80%

# input Name the recorded pest or weed control at 100 g/ha of the item Cc1cc(I)cc(C(=O)NC(C)C)c1NC(=O)c1cc(Cn2nnnc2C(F)(F)F)nn1-c1ncccc1Cl [Example 173] in your answer.
# output ≥ 80%

# input Specify measured pest or weed control at 100 g/ha for CNC(=O)c1cc(Cl)cc(Cl)c1NC(=O)c1cc(Cn2nnnc2C(F)F)nn1-c1ncccc1Cl [Example 476] .
# output ≥ 80%

# input Give the reported pest or weed control at 100 g/ha for this molecule. N#CCNC(=O)c1cc(Cl)cc(Cl)c1NC(=O)c1cc(Cn2nnc(C(F)F)n2)nn1-c1ncccc1Cl [Example 290]
# output ≥ 80%

# input Find the measured pest or weed control at 100 g/ha of Cc1cc(C#N)cc(C(=O)NC(C)C2CC2)c1NC(=O)c1cc(Cn2nnc(C(F)(F)C(F)(F)F)n2)nn1-c1ncccc1Cl (stereo not shown) [Example 134] and report it.
# output ≥ 80%

# input Please look at this molecule and report its pest or weed control at 100 g/ha: Cc1cc(C#N)cc(C(=O)NC(C2CC2)C2CC2)c1NC(=O)c1cc(Cn2nnc(C(F)(F)F)n2)nn1-c1ncccc1Cl [Example 87]
# output ≥ 80%
